Test target: CDK6/cyclin D3 (Homo sapiens) (UniProt P30281+Q00534)
Assay: Inhibition of CDK6/CyclinD3 (unknown origin) at 100 nM preincubated for 15 mins followed by substrate and ATP addition incubated for 10 mins by ADP-glo luminescent assay relative to control
Format: protein-complex assay
Experimental setup: time 25.0 min
Readout label: inhibition

1) O=C(CCn1cc(COc2ccc(N(C(=O)CCl)C(C(=O)NCCc3ccccc3)c3cccs3)cc2Cl)nn1)O/N=C1/C(=C2/C(=O)Nc3ccccc32)Nc2ccccc21 (configuration not stated)	46.3%
2) O=C(CCn1cc(COc2ccc(N(C(=O)CCl)C(C(=O)NCCc3ccccc3)c3cccs3)cc2Cl)nn1)NCCCO/N=C1/C(=C2/C(=O)Nc3cc(Cl)ccc32)Nc2ccccc21 (configuration not stated)	38.5%
3) COc1ccc2c(c1)NC(=C1\C(=O)Nc3ccccc31)/C2=N/OC(=O)CCn1cc(COc2ccc(N(C(=O)CCl)C(C(=O)NCCc3ccccc3)c3cccs3)cc2Cl)nn1 (configuration not stated)	47%
4) O=C(CCn1cc(COc2ccc(N(C(=O)CCl)C(C(=O)NCCc3ccccc3)c3cccs3)cc2Cl)nn1)O/N=C1/C(=C2/C(=O)Nc3ccccc32)Nc2cc(F)ccc21 (configuration not stated)	29.7%
5) COc1ccc2c(c1)/C(=C1/Nc3ccccc3/C1=N\OCCCNC(=O)CCn1cc(COc3ccc(N(C(=O)CCl)C(C(=O)NCCc4ccccc4)c4cccs4)cc3Cl)nn1)C(=O)N2 (configuration not stated)	40%
6) O=C(CCn1cc(COc2ccc(N(C(=O)CCl)C(C(=O)NCCc3ccccc3)c3cccs3)cc2Cl)nn1)NCCCO/N=C1/C(=C2/C(=O)Nc3cc(Br)c(Br)cc32)Nc2ccccc21 (configuration not stated)	4.65%
7) O=C(CCn1cc(COc2ccc(N(C(=O)CCl)C(C(=O)NCCc3ccccc3)c3cccs3)cc2Cl)nn1)O/N=C1/C(=C2/C(=O)Nc3ccccc32)Nc2cc(Br)ccc21 (configuration not stated)	14.7%

All figures here come from ChEMBL document CHEMBL5528035.
